# target_desc: glucosylceramide synthase (Homo sapiens, UniProt Q16739)
# Construct: Microsomes were isolated from A375 human melanoma cells; endogenous in cells
# Sequence (Q16739 whole entry): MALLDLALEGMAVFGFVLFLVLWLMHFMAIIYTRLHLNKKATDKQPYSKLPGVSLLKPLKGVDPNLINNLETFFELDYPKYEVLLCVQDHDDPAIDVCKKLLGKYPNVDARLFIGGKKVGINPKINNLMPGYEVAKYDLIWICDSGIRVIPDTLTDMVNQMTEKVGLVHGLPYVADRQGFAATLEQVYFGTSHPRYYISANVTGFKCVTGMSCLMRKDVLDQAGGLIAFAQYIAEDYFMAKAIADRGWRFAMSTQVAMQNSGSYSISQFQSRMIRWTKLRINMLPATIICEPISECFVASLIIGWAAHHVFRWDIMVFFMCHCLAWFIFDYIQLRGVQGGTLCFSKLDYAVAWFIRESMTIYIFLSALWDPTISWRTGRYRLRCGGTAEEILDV
# procedure_summary: microsomal assay measuring conversion of ceramide to glucosylceramide by HPLC (GCS IC50)
# protocol_conditions: concentration causing 50% inhibition of glucosylceramide synthase activity
pIC50: −log10 of the molar value.

>  <compound>
COCCOCc1ccc(-c2ccnc(N3CCC(C)(C(=O)NC4(C)CN5CCC4CC5)CC3)n2)cc1 (centres unmarked)

>  <target_desc>
glucosylceramide synthase (Homo sapiens, UniProt Q16739)

>  <pIC50>
7.11

$$$$
>  <compound>
CC(C)(NC(=O)OC1CN2CCC1CC2)c1ccc(-c2ccc(S(C)(=O)=O)cc2)cc1 (centres unmarked)

>  <target_desc>
glucosylceramide synthase (Homo sapiens, UniProt Q16739)

>  <pIC50>
6.95

$$$$
>  <compound>
COCCOCc1ccc(-c2nc(N3CCC(F)(C(=O)NC4(C)CCN5CCC4CC5)CC3)ncc2F)cc1 (single isomer, unassigned) [Example 78]

>  <target_desc>
glucosylceramide synthase (Homo sapiens, UniProt Q16739)

>  <pIC50>
7.19

$$$$
>  <compound>
CC1(NC(=O)C2CCN(c3nccc(-c4ccc(OCCF)cc4)n3)CC2)CCN2CCC1CC2 (centres unmarked)

>  <target_desc>
glucosylceramide synthase (Homo sapiens, UniProt Q16739)

>  <pIC50>
8.61

$$$$
>  <compound>
CC1(NC(=O)C2(F)CCN(c3nccc(-c4ccc(OCCF)cc4)n3)CC2)CN2CCC1CC2 (centres unmarked)

>  <target_desc>
glucosylceramide synthase (Homo sapiens, UniProt Q16739)

>  <pIC50>
8.84

$$$$
>  <compound>
COCCCOc1cnc(-c2ccc(C(C)(C)NC(=O)N3CCN4CCC3CC4)cc2)cn1

>  <target_desc>
glucosylceramide synthase (Homo sapiens, UniProt Q16739)

>  <pIC50>
5.97

$$$$
>  <compound>
COCCOc1ccc(Cc2cnc(N3CCC(F)(C(=O)NC4(C)CN5CCC4CC5)CC3)nc2)cc1 (centres unmarked)

>  <target_desc>
glucosylceramide synthase (Homo sapiens, UniProt Q16739)

>  <pIC50>
8.10

$$$$
>  <compound>
COCCCS(=O)(=O)c1ccc(-c2ccc(C(C)(C)NC(=O)OC3CN4CCC3CC4)cc2)cc1 (centres unmarked)

>  <target_desc>
glucosylceramide synthase (Homo sapiens, UniProt Q16739)

>  <pIC50>
7.49

$$$$
>  <compound>
CC(C)(NC(=O)NC1(C)CCN2CCC1CC2)c1ccc(Oc2ccc(C(=O)N3CC(F)(F)C3)cc2)cc1 (centres unmarked)

>  <target_desc>
glucosylceramide synthase (Homo sapiens, UniProt Q16739)

>  <pIC50>
8.12

$$$$
>  <compound>
CC1(NC(=O)C2CCN(c3ccc(-c4ccccc4)cc3)CC2)CCN2CCC1CC2 (centres unmarked)

>  <target_desc>
glucosylceramide synthase (Homo sapiens, UniProt Q16739)

>  <pIC50>
5.98

$$$$
>  <compound>
CC(C)(NC(=O)NC1(C)CN2CCC1CC2)c1ccc(-c2ccc(S(=O)(=O)CC3CC3)cc2)cc1 (centres unmarked)

>  <target_desc>
glucosylceramide synthase (Homo sapiens, UniProt Q16739)

>  <pIC50>
7.88

$$$$
>  <compound>
COCCOc1ccc(-c2ccc(C(C)(C)NC(=O)OC3CCN4CCC3CC4)nc2)cc1 (single isomer, unassigned) [Example 348]

>  <target_desc>
glucosylceramide synthase (Homo sapiens, UniProt Q16739)

>  <pIC50>
7.56

$$$$
>  <compound>
O=C(NC1CN2CCC1CC2)C1CCN(c2nccc(-c3ccc(F)cc3)n2)CC1 (centres unmarked)

>  <target_desc>
glucosylceramide synthase (Homo sapiens, UniProt Q16739)

>  <pIC50>
8.57

$$$$
>  <compound>
COCCCOc1ccc(-c2ccc(C3(NC(=O)NC4(C)CCN5CCC4CC5)CC3)cc2)cc1 (centres unmarked)

>  <target_desc>
glucosylceramide synthase (Homo sapiens, UniProt Q16739)

>  <pIC50>
8.80

$$$$
>  <compound>
CC1CN(C(=O)NC2(C)CCN3CCC2CC3)CCN1c1nccc(-c2ccccc2)n1 (centres unmarked)

>  <target_desc>
glucosylceramide synthase (Homo sapiens, UniProt Q16739)

>  <pIC50>
8.22

$$$$
>  <compound>
CC1(NC(=O)C2(F)CCN(c3nccc(OCc4ccc(F)cc4)n3)CC2)CN2CCC1CC2 (centres unmarked)

>  <target_desc>
glucosylceramide synthase (Homo sapiens, UniProt Q16739)

>  <pIC50>
9.19

$$$$
>  <compound>
CC(C)(NC(=O)OC1CN2CCC1CC2)c1ccc(-c2ccc(N3CCOCC3)cc2)cc1 (centres unmarked)

>  <target_desc>
glucosylceramide synthase (Homo sapiens, UniProt Q16739)

>  <pIC50>
7.15

$$$$
>  <compound>
CC1(NC(=O)C2CCN(c3nccc(Oc4ccc(F)cc4)n3)CC2)CCN2CCC1CC2 (centres unmarked)

>  <target_desc>
glucosylceramide synthase (Homo sapiens, UniProt Q16739)

>  <pIC50>
8.61

$$$$
>  <compound>
CC1(NC(=O)C2CCN(c3ccnc(-c4ccc(F)cc4)c3)CC2)CCN2CCC1CC2 (centres unmarked)

>  <target_desc>
glucosylceramide synthase (Homo sapiens, UniProt Q16739)

>  <pIC50>
7.09

$$$$
>  <compound>
COCCOc1ccc(-c2nc(C(C)(C)NC(=O)OC3CCN4CCC3CC4)cs2)cc1 (centres unmarked)

>  <target_desc>
glucosylceramide synthase (Homo sapiens, UniProt Q16739)

>  <pIC50>
7.18

$$$$
